molecular target: -; assay: competition binding, 125I-PTH(1-15) tracer, HKRK-B28 cells
Non-standard residues stand in square brackets, D forms with d. No end group written: not given here. Bpa = N[C@@H](Cc1ccc(C(=O)c2ccccc2)cc1)C(=O)O; hArg = N=C(N)NCCCC[C@H](N)C(=O)O; Ac5c = NC1(C(=O)O)CCCC1; Deg = CCC(N)(CC)C(=O)O; desNH2 = X is (desNH2); Aib = CC(C)(N)C(=O)O
measure_name: pIC50
Note on units: pIC50 is unitless, being -log10 of a concentration expressed in mol/L.

// query # lookup: pIC50 of [Deg][Bpa][Deg]EIQLMHQ[hArg]AKW-NH2 (N-terminus assumed; SMILES CC[C@H](C)[C@H](NC(=O)[C@H](CCC(=O)O)NC(=O)C(CC)(CC)NC(=O)[C@H](Cc1ccc(C(=O)c2ccccc2)cc1)NC(=O)C(N)(CC)CC)C(=O)N[C@@H](CCC(N)=O)C(=O)N[C@@H](CC(C)C)C(=O)N[C@@H](CCSC)C(=O)N[C@@H](Cc1c[nH]cn1)C(=O)N[C@@H](CCC(N)=O)C(=O)N[C@@H](CCCCNC(=N)N)C(=O)N[C@@H](C)C(=O)N[C@@H](CCCCN)C(=O)N[C@@H](Cc1c[nH]c2ccccc12)C(N)=O) [Deg1,3,Bpa2]
// result 6.08

// query # lookup: pIC50 of [Deg]V[Deg]EIQLMHQ[hArg]AKW-NH2 (N-terminus assumed; SMILES CC[C@H](C)[C@H](NC(=O)[C@H](CCC(=O)O)NC(=O)C(CC)(CC)NC(=O)[C@@H](NC(=O)C(N)(CC)CC)C(C)C)C(=O)N[C@@H](CCC(N)=O)C(=O)N[C@@H](CC(C)C)C(=O)N[C@@H](CCSC)C(=O)N[C@@H](Cc1c[nH]cn1)C(=O)N[C@@H](CCC(N)=O)C(=O)N[C@@H](CCCCNC(=N)N)C(=O)N[C@@H](C)C(=O)N[C@@H](CCCCN)C(=O)N[C@@H](Cc1c[nH]c2ccccc12)C(N)=O) [Deg1,3]
// result 6.64

// query # lookup: pIC50 of [Ac5c]V[Aib]EIQLMHQ[hArg]AKW-NH2 (N-terminus assumed; SMILES CC[C@H](C)[C@H](NC(=O)[C@H](CCC(=O)O)NC(=O)C(C)(C)NC(=O)[C@@H](NC(=O)C1(N)CCCC1)C(C)C)C(=O)N[C@@H](CCC(N)=O)C(=O)N[C@@H](CC(C)C)C(=O)N[C@@H](CCSC)C(=O)N[C@@H](Cc1c[nH]cn1)C(=O)N[C@@H](CCC(N)=O)C(=O)N[C@@H](CCCCNC(=N)N)C(=O)N[C@@H](C)C(=O)N[C@@H](CCCCN)C(=O)N[C@@H](Cc1c[nH]c2ccccc12)C(N)=O) [parent]
// result 7.52

// query # lookup: pIC50 of desNH2-[Ac5c]V[Aib]EIQLMHQ[hArg]AKW-NH2 [desNH2-AC5C1]
// result 5.74
